Values compiled from ChEMBL document CHEMBL4118104.

assay: AUC (0 to infinity) in Sprague-Dawley rat at 30 mg/kg, po by LC-MS/MS analysis; format: ADME, organism-based; set-up: dose 30 mg/kg, time infinity, route oral; settings: in vivo
assay_metric: AUC(0-inf) (ng·h/mL)
The answer is to be given in ng·h/mL; state only the numeric part.

# input compound: "Cl.Oc1ccc2[nH]c(-c3ccc4c(Cl)cc(Cl)c(O)c4n3)cc2c1" ; wanted: its AUC(0-inf) 1790

* * *

system: PC-12; experiment: Cytotoxicity against rat undifferentiated PC12 cells at 0.5 to 50 uM after 72 hrs by MTT assay; assay type: cell-based; conditions: pc-12, 72 h
assay_metric: Activity

Some solved entries appear below for comparison.
Oc1cccc2ccc(-c3cc4cc(Cl)ccc4[nH]3)nc12    Toxic
Oc1ccc2[nH]c(-c3ccc4cccc(O)c4n3)cc2c1    Toxic
Oc1cccc2ccc(-c3cc4ccc5c(c4[nH]3)OCO5)nc12    Non-Toxic
COc1cc2cc(-c3ccc4c(Cl)cc(Cl)c(O)c4n3)[nH]c2cc1OC    Toxic
Oc1ccc2[nH]c(-c3cc(Cl)c(O)c4ncccc34)cc2c1    Toxic
Oc1ccc2[nH]c(-c3ccc(O)c4ncccc34)cc2c1    Toxic

Need Activity of "Oc1ccc2[nH]c(-c3ccc4c(Cl)cc(Cl)c(O)c4n3)cc2c1" , thanks. Non-Toxic

Ok, now "Oc1ccc(-c2cc3ccccc3[nH]2)c2cccnc12" Toxic

Moving on to the next compound: "Oc1c(Cl)cc(Cl)c2ccc(-c3cc4cc(Cl)ccc4[nH]3)nc12" Non-Toxic

Entry "Oc1c(Cl)cc(Cl)c2ccc(-c3cc4cc5c(cc4[nH]3)OCO5)nc12" please Non-Toxic
